molecular target: connexin 26 (Cx26) K188N (Homo sapiens, UniProt P29033, K188N); construct: purified recombinant connexin channel, His-tag Cy5 labeled; test: microscale thermophoresis (MST); conditions: read-out: EC50
pKd: −log10 of the molar value.
measured_quantity: pKd

[[record]]
item_smiles = "O=C(Nc1ncc([C@H](c2ccccc2Cl)N2CC[C@@H](O)C2)s1)C1(c2ccc3c(c2)OCO3)CC1"
observed_value = 5.32


---

biological target: connexin 26 (Cx26) (Homo sapiens, UniProt P29033); construct: purified recombinant WT connexin channel, His-tag Cy5 labeled; assay: microscale thermophoresis (MST); details: read-out: EC50
measured_quantity: Kd (µM)

[[record]]
compound = "O=C(Nc1ncc([C@H](c2ccccc2Cl)N2CC[C@@H](O)C2)s1)C1(c2ccc3c(c2)OCO3)CC1 [compound 3]"
observed_value = 19.3

